Parameter viability, T/C: see the listing below.
system: 941728-121-R-J1-PDC complex spheroid viability; assay: Anticancer human tumor 941728-121-R-J1-PDC patient-derived lung adenocarcinoma cell line growth inhibition [RAS]; details: second compound 0.01 µM; first compound 0.0316 µM; stronger effect = lower value
Form entry: value (%) — number only.

Check out these entries, answers already filled in.
O=C(c1ccc(F)c(F)c1Nc1ccc(I)cc1F)N1CC(O)([C@@H]2CCCCN2)C1 + C=CC(=O)N1CCN(c2nc(OCC3CCCN3C)nc3c(F)c(-c4nc(N)cc(C)c4C(F)(F)F)c(Cl)cc23)C(C)C1: 16.7
CC(C)n1nc(-c2ccc3oc(N)nc3c2)c2c(N)ncnc21 + C=CC(=O)N1CCN(c2nc(OCC3CCCN3C)nc3c(F)c(-c4nc(N)cc(C)c4C(F)(F)F)c(Cl)cc23)C(C)C1: 10.7
CCC(CC)c1cc(NC2CCC(N)C2)n2nccc2n1 (centres undefined) + C=CC(=O)N1CCN(c2nc(OCC3CCCN3C)nc3c(F)c(-c4nc(N)cc(C)c4C(F)(F)F)c(Cl)cc23)C(C)C1: 20.1

GET /values?readout=viability, T/C&system=941728-121-R-J1-PDC complex spheroid viability&item= Cc1nc(N2CCC3(CC2)COC(C)C3N)c(CO)nc1Sc1ccnc(N)c1Cl (centres undefined) + C=CC(=O)N1CCN(c2nc(OCC3CCCN3C)nc3c(F)c(-c4nc(N)cc(C)c4C(F)(F)F)c(Cl)cc23)C(C)C1
17.8

====

test system: 941728-121-R-J1-PDC complex spheroid viability; assay: Anticancer human tumor 941728-121-R-J1-PDC cell line growth inhibition [RAS]; conditions: second compound 0.3 µM; first compound 0.1 µM; stronger effect = lower value;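 further: spheroids exposed to compounds for 7 days before readout; 100% = DMSO vehicle control viability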
# label = condition met if viability, T/C < 20% else condition not met

Consider the following illustrative entries.
CCC(CC)c1cc(NC2CCC(N)C2)n2nccc2n1 (configuration not stated) + CCn1c(-c2cccnc2C(C)OC)c2c3cc(ccc31)N1CCOC(CC(NC(=O)C(C(C)C)N(C)C(=O)C3(F)CCN(C(=O)C#CC(C)(C)N(C)C)CC3)C(=O)N3CCCC(N3)C(=O)OCC(C)(C)C2)C1: condition not met
CC(C)NCC(C(=O)N1CCN(c2ncnc3c2C(C)CC3O)CC1)c1ccc(Cl)cc1 (configuration not stated) + CCn1c(-c2cccnc2C(C)OC)c2c3cc(ccc31)N1CCOC(CC(NC(=O)C(C(C)C)N(C)C(=O)C3(F)CCN(C(=O)C#CC(C)(C)N(C)C)CC3)C(=O)N3CCCC(N3)C(=O)OCC(C)(C)C2)C1: condition not met
Cc1nc(N2CCC3(CC2)COC(C)C3N)c(CO)nc1Sc1ccnc(N)c1Cl (configuration not stated) + CCn1c(-c2cc(N3CCN(C)CC3)cnc2C(C)OC)c2c3cc(ccc31)-c1csc(n1)CC(NC(=O)C1CC1C)C(=O)N1CCCC(N1)C(=O)OCC(C)(C)C2: condition met
O=C(c1ccc(F)c(F)c1Nc1ccc(I)cc1F)N1CC(O)([C@@H]2CCCCN2)C1 + CCn1c(-c2cccnc2C(C)OC)c2c3cc(ccc31)N1CCOC(CC(NC(=O)C(C(C)C)N(C)C(=O)C3(F)CCN(C(=O)C#CC(C)(C)N(C)C)CC3)C(=O)N3CCCC(N3)C(=O)OCC(C)(C)C2)C1: condition met
CC1(O)CCCC1n1c(=O)c(C(F)F)cc2cnc(NC3CCN(S(C)(=O)=O)CC3)nc21 (configuration not stated) + CCn1c(-c2cc(N3CCN(C)CC3)cnc2C(C)OC)c2c3cc(ccc31)-c1csc(n1)CC(NC(=O)C1CC1C)C(=O)N1CCCC(N1)C(=O)OCC(C)(C)C2: condition met

# evaluate next
Quick check: viability, T/C of CC(=O)OC12COC1CC(O)C1(C)C(=O)C(O)C3=C(C)C(OC(=O)C(O)C(NC(=O)OC(C)(C)C)c4ccccc4)CC(O)(C(OC(=O)c4ccccc4)C21)C3(C)C (configuration not stated) + CCn1c(-c2cccnc2C(C)OC)c2c3cc(ccc31)N1CCOC(CC(NC(=O)C(C(C)C)N(C)C(=O)C3(F)CCN(C(=O)C#CC(C)(C)N(C)C)CC3)C(=O)N3CCCC(N3)C(=O)OCC(C)(C)C2)C1 under 20%?
condition met

Hello, the source for this data is PubChem BioAssay AID2060896, in case you need it.
